target: Substance-P receptor (Homo sapiens, UniProt P25103); assay: Concentration required for binding affinity to neurokinin (NK1) receptor in human IM9 cells
Sequence (P25103 whole entry): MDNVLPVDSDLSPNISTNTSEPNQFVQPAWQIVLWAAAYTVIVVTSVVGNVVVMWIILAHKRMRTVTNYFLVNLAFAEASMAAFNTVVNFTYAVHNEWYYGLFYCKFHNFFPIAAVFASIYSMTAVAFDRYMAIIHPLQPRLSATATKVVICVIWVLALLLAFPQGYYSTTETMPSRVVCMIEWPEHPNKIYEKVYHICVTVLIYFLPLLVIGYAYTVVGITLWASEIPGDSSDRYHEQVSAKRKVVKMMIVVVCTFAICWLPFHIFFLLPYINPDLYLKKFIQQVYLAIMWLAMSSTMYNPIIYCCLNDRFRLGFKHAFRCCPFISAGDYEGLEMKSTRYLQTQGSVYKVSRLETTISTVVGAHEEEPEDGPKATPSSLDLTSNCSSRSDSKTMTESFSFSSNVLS
recorded_metric: pIC50
Schema: pIC50 number; meaning minus log10 of the concentration expressed in molar units.

Lab note: measured pIC50 of CC(C)COC(=O)N[C@@H](Cc1c[nH]c2ccccc12)C(=O)NCCc1c[nH]c2ccccc12 was 6.37

----------
Here's a batch of compounds along with measured pKi for Neuromedin-B receptor (Homo sapiens).
Schema: pKi number; meaning minus log10 of the concentration expressed in molar units.

Neuromedin-B receptor (Homo sapiens) data for CC(C)COC(=O)N[C@@H](Cc1c[nH]c2ccccc12)C(=O)NCCc1c[nH]c2ccccc12 ; its pKi: 5.33

Neuromedin-B receptor (Homo sapiens) data for CC(C)CCNC(=O)[C@H](Cc1c[nH]c2ccccc12)NC(=O)OCc1cnc[nH]1 ; its pKi: 5.41
